# System Tested: human DLL4, full length, on cells (human, UniProt Q9NR61 27-685)
# Sequence (Q9NR61 27-685 limits assumed): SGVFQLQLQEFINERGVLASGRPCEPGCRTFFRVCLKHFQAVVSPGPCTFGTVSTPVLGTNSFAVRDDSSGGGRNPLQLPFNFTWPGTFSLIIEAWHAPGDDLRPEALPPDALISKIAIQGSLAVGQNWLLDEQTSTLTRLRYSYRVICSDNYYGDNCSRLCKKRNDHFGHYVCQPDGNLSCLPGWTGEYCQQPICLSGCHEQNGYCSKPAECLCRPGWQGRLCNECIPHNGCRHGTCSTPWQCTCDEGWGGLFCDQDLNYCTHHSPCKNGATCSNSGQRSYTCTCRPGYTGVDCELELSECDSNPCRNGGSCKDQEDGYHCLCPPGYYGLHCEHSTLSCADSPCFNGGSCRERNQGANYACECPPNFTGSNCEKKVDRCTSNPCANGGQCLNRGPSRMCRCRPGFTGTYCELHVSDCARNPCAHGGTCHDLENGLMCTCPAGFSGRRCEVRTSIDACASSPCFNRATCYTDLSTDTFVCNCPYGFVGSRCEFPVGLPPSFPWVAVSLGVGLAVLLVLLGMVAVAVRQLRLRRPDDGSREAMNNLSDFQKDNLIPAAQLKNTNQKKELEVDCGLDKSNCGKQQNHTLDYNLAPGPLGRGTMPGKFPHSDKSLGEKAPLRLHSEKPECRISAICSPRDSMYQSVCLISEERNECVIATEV
# Method Notes: cell-based or functional assay
Property Measured: Inhibition of Notch Activation via DLL4 cells, Notch reporter assay (nM)
One number for each entry, in nM.

| Binder | Unit Label | Quantitative Result |
| --- | --- | --- |
| h1A11.F5 (antibody, V domains shown, also called h1A11.F5 VH / h1A11.E12 VL) VH: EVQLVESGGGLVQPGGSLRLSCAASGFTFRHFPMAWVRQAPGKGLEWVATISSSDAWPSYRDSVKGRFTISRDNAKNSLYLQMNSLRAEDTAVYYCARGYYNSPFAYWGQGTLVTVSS VL: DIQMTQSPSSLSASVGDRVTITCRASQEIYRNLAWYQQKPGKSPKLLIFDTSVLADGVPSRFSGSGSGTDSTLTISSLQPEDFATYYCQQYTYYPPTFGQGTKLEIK | nM | 0.484 |

Next, consider the following binder.
Exam item: Quick one: Inhibition of Notch Activation via DLL4 cells, Notch reporter assay of h1A11.G3 (antibody, V domains shown, also called h1A11.G3 VH / h1A11.E12 VL) VH: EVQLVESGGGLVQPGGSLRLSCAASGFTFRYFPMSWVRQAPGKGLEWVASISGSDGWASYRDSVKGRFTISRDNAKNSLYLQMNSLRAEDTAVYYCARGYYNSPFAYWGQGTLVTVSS VL: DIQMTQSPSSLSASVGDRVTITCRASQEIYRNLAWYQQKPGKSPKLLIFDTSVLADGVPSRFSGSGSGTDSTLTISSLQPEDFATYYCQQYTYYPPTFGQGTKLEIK ?
Marked response: 1.84
